molecular target: 11β-HSD1 Dehydrogenase (Rattus norvegicus, UniProt P16232); construct: testicular leydig cell homogenates; from tissue; host or cells: testicular Leydig cell homogenates; test: 11β-HSD1 dehydrogenase inhibition, testicular Leydig cell homogenates; assay type: biochemical; settings: result in words
Sequence (P16232 whole entry): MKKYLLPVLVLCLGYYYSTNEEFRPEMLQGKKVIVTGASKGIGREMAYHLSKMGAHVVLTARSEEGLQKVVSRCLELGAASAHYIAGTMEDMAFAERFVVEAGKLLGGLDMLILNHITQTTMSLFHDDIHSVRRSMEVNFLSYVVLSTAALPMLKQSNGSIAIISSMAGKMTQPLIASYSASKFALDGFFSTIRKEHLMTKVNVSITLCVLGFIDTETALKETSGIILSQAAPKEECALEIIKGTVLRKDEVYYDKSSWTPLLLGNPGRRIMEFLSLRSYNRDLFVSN

| chemical_string | 11β-HSD1 Dehydrogenase inhibition |
| --- | --- |
| C[C@]12CC(=O)[C@H]3[C@@H](CCC4=CC(=O)CC[C@@]43C)[C@@H]1CC[C@@H]2O | No Inhibition |
| C[C@]12CC[C@@H](O)C[C@@H]1CC[C@@H]1[C@@H]2C(=O)C[C@]2(C)C(=O)CC[C@@H]12 | No Inhibition |
| C[C@]12CCC(=O)C=C1CC[C@@H]1[C@@H]2C(=O)C[C@]2(C)C(=O)CC[C@@H]12 | No Inhibition |
